# EC50 per record follows
Target: Mitogen-activated protein kinase kinase kinase 3 (Homo sapiens) (UniProt Q99759)
Sequence (Q99759 whole entry, looked up): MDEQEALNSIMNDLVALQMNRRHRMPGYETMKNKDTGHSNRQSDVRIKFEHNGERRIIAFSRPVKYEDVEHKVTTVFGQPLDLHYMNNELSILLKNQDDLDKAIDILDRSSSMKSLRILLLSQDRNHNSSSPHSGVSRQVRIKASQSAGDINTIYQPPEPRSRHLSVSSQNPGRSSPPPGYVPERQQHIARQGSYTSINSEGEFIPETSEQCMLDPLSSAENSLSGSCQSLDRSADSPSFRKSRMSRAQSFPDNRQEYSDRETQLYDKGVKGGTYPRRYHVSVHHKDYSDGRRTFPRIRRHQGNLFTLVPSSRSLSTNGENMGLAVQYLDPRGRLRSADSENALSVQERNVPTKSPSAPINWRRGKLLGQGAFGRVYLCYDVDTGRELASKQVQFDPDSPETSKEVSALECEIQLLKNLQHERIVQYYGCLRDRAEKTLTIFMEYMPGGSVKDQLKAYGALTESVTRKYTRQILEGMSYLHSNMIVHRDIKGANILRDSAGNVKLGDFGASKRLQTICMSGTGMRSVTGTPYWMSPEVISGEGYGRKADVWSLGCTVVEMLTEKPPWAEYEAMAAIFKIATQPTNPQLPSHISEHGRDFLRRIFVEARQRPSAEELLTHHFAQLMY
Assay: MEKK3 PB1-MEK5 interaction blockers – biochemical, bead multiplex flow cytometry, wildtype, dose response (AID 1896)
Conditions: bead-based multiplex flow cytometry, MEK5-MEKK3 PB1 binding
Active and inactive are the calls of the source. No rule for the calls is given here.

MOLECULE	EC50
CN1CCN(CC(=O)N2CCn3c4c(c5cc(C6CCCCC6)ccc53)CCCC42)CC1 (stereo not given)	> 30 µM (inactive)
Cc1nn2c(N)csc2nc1=O	4.14 µM
CN(c1ccccc1)c1ccc(/C=c2\s/c(=C(/C#N)C(=O)C(C)(C)C)n(Cc3ccco3)c2=O)cc1	0.34 µM
COc1ccc2nc3cc(Cl)ccc3c(Nc3cc(C(C)C)c(O)cc3C)c2c1	> 30 µM (inactive)
COc1ccc(Cn2c(SCc3ccccc3C)nc3cc(OC)c(OC)cc3c2=N)cc1	> 30 µM (inactive)
